- Experimental Details: Pharmacokinetics by oral administration and intravenous injection in SD rats
- Assay type: in vivo
- Condition Parameters: oral, 9.7 mg/kg (8B), 9.8 mg/kg (17), read-out: Peak concentration, Cmax
Observable: Cmax (nM)
Please state the figure in nM; there is no need to write the unit.

Query block: Quick one: Cmax of C=C(F)C(=O)N1CCN(c2nc(OCC3CCCN3C)nc3c2COC(c2c(F)c(N)cc(C)c2C(F)(F)F)C3)CC1CC#N.Cl (single isomer, unassigned) [Compound 8B hydrochloride] ?
Result block: 218

====

- Experimental Details: Pharmacokinetics by oral administration and intravenous injection in SD rats
- Assay type: in vivo
- Condition Parameters: male, SD, rat, plasma, iv, 2 mg/kg, intravenous injection, 2.0 mg/kg, Vdss/PPB(Unbound %), read-out: Apparent volume of distribution, Vdss, u
Observable: Vd (L/kg)
Report the figure in L/kg without appending any unit label.

Query block: Can you share its Vd? I mean this molecule: C=C(F)C(=O)N1CCN(c2nc(OC[C@@]34CCCN3C[C@H](F)C4)nc3c2COC(c2c(F)c(N)cc(C)c2C(F)(F)F)C3)C[C@@H]1CC#N (stereo partly shown)
Result block: 221

====

- Experimental Details: Metabolic stability in hepatocytes, cynomolgus monkeys
- Assay type: in vitro ADME
- Condition Parameters: cynomolgus monkey, cryopreserved hepatocytes
Observable: half-life at 1 μM
Give the figure together with its unit, number first.

Query block: Could you tell me which half-life at 1 μM is on file for C=C(F)C(=O)N1CCN(c2nc(OC[C@@]34CCCN3C[C@H](F)C4)nc3c2COC(c2c(F)c(N)cc(C)c2C(F)(F)F)C3)C[C@@H]1CC#N (stereo partly shown) [Compound 17] ?
Result block: 27 min

====

- Experimental Details: Pharmacokinetics by oral administration and intravenous injection in CD mice
- Type: in vivo
- Condition Parameters: male, mouse, plasma, intravenous injection, 2.39 mg/kg (17), 2.0 mg/kg (8B), read-out: Clearance rate, CL
Observable: clearance (mL/min/kg)
Number only, in mL/min/kg; omit the unit.

Query block: Dear colleague, I am looking for the recorded clearance of the following molecule: C=C(F)C(=O)N1CCN(c2nc(OC[C@@]34CCCN3C[C@H](F)C4)nc3c2COC(c2c(F)c(N)cc(C)c2C(F)(F)F)C3)C[C@@H]1CC#N (stereo partly shown)
Result block: 37.3

====

- Experimental Details: Metabolic stability in hepatocytes, CD-1 mice
- Type: in vitro ADME
- Condition Parameters: mouse, cryopreserved hepatocytes, CD-1 mice hepatocytes
Observable: half-life at 1 μM (min)
Give the quantity in min, number only.

Query block: Look up half-life at 1 μM for this compound: C=C(F)C(=O)N1CCN(c2nc(OC[C@@]34CCCN3C[C@H](F)C4)nc3c2COC(c2c(F)c(N)cc(C)c2C(F)(F)F)C3)C[C@@H]1CC#N (stereo partly shown) [Compound 17]
Result block: 9.5

====

- Test system: KRAS^G12C-mutated MIA-PA-CA-2 cells
- Experimental Details: Inhibition of proliferation of KRAS^G12C-mutated MIA-PA-CA-2 cells (CellTiter-Glo, 72 h)
- Assay type: cell-based, human
- Condition Parameters: 72 h incubation
Counter-ions that a name gives are not always drawn.
// returns not met unless IC50 is strictly below 5 nM, in which case met

Solved cases (4 shown):
Molecule	Category Label
C=C(F)C(=O)N1CCN(c2nc(OCC3CCCN3C)nc3c2COC(c2c(F)c(N)cc(C)c2C(F)(F)F)C3)CC1CC#N (single isomer, unassigned) [8B hydrochloride]	met
C=CC(=O)N1CCN(c2nc(OCC3CC(F)CN3C)nc3c2COC(c2c(F)c(N)cc(C)c2C(F)(F)F)C3)C(C)C1 (single isomer, unassigned) [Compound 9B]	not met
C=CC(=O)N1CCN(c2nc(OC[C@@H]3CCCN3C)nc3c2CN(C)C(c2cccc4ccccc24)C3)C[C@@H]1CC#N (some centres unmarked) [Compound 1]	not met
C=CC(=O)N1CCN(c2nc(OCC34CCCN3CCC4)nc3c2COC(c2c(F)c(N)cc(C)c2C(F)(F)F)C3)C(C)C1 (centres unmarked) [Compound 12]	met

Then there is this molecule:
Query block: Please let me know if C=CC(=O)N1CCN(c2nc(OCC3CCCN3C)nc3c2COC(c2c(F)c(N)cc(C)c2C(F)(F)F)C3)C(C)C1 (single isomer, unassigned) [Compound 18B] shows IC50 below 5 nM.
Result block: met

====

- Experimental Details: Pharmacokinetics by oral administration and intravenous injection in SD rats
- Type: in vivo
- Condition Parameters: male, rat, plasma, intravenous injection, 2.0 mg/kg, read-out: Half-life period, T1/2 (converted)
Observable: half-life (h)
Answer in h, number only, no unit symbol.

Query block: Name the recorded half-life for C=C(F)C(=O)N1CCN(c2nc(OC[C@@]34CCCN3C[C@H](F)C4)nc3c2COC(c2c(F)c(N)cc(C)c2C(F)(F)F)C3)C[C@@H]1CC#N (stereo partly shown) .
Result block: 1.9

====

- Experimental Details: Metabolic stability in hepatocytes, CD-1 mice
- Type: in vitro ADME
- Condition Parameters: mouse, cryopreserved hepatocytes, CD-1 mice hepatocytes, read-out: CLint(liver)
Observable: CLint scaled at 1 μM (mL/min/kg)
Please state the figure in mL/min/kg; there is no need to write the unit.

Query block: // CLint scaled at 1 μM lookup, key: C=C(F)C(=O)N1CCN(c2nc(OC[C@@]34CCCN3C[C@H](F)C4)nc3c2COC(c2c(F)c(N)cc(C)c2C(F)(F)F)C3)C[C@@H]1CC#N (stereo partly shown) [Compound 17]
Result block: 1740

====

- Experimental Details: In vitro stability in liver microsomes, cynomolgus monkeys
- Format: in vitro ADME
- Condition Parameters: cynomolgus monkey, 0.5 mg/mL
Observable: half-life at 1 μM (min)
// units = min; emit number, no label

Query block: Name the reported half-life at 1 μM value associated with the compound C=C(F)C(=O)N1CCN(c2nc(OC[C@@]34CCCN3C[C@H](F)C4)nc3c2COC(c2c(F)c(N)cc(C)c2C(F)(F)F)C3)C[C@@H]1CC#N (stereo partly shown) [Compound 17]
Result block: 6.2

====

- Experimental Details: Metabolic stability in hepatocytes, SD rats
- Format: in vitro ADME
- Condition Parameters: rat, cryopreserved hepatocytes, read-out: CLint(liver)
Observable: CLint scaled at 1 μM (mL/min/kg)
Answer with a number only, understood to be in mL/min/kg.

Query block: GET /values?readout=CLint scaled at 1 μM&item= C=C(F)C(=O)N1CCN(c2nc(OC[C@@]34CCCN3C[C@H](F)C4)nc3c2COC(c2c(F)c(N)cc(C)c2C(F)(F)F)C3)C[C@@H]1CC#N (stereo partly shown) [Compound 17]
Result block: 315

====

// reported CLint(mic) per item
- Experimental Details: In vitro stability in liver microsomes, human
- Type: in vitro ADME
- Condition Parameters: 1 μM, 0.5 mg/mL
Response body: numeric value in µL/min/mg, unit text excluded.

Compound	Observable	Result
C=C(F)C(=O)N1CCN(c2nc(OC[C@@]34CCCN3C[C@H](F)C4)nc3c2COC(c2c(F)c(N)cc(C)c2C(F)(F)F)C3)C[C@@H]1CC#N (some centres unmarked)	CLint(mic)	67.9

Next, consider the following compound.
Query block: Would you mind telling me what CLint(mic) value was observed for C=C(F)C(=O)N1CCN(c2nc(OCC3CCCN3C)nc3c2COC(c2c(F)c(N)cc(C)c2C(F)(F)F)C3)CC1CC#N.Cl (single isomer, unassigned) [Compound 8B hydrochloride] ?
Result block: 23

====

- Experimental Details: Pharmacokinetics by oral administration and intravenous injection in SD rats
- Format: in vivo
- Condition Parameters: male, rat, plasma, oral, 9.7 mg/kg (8B), 9.8 mg/kg (17), read-out: Bioavailability F
Observable: bioavailability (%)
Give the value in % but do not write % after it.

Query block: Record request: bioavailability value, item C=C(F)C(=O)N1CCN(c2nc(OC[C@@]34CCCN3C[C@H](F)C4)nc3c2COC(c2c(F)c(N)cc(C)c2C(F)(F)F)C3)C[C@@H]1CC#N (stereo partly shown) [Compound 17]
Result block: 30.5

====

- Experimental Details: Pharmacokinetics by oral administration and intravenous injection in CD mice
- Format: in vivo
- Condition Parameters: male, mouse, plasma, oral, 14.7 mg/kg (17), 10.3 mg/kg (8B), read-out: Bioavailability F
Observable: bioavailability

Query block: If you can, please state the reported bioavailability value of C=C(F)C(=O)N1CCN(c2nc(OC[C@@]34CCCN3C[C@H](F)C4)nc3c2COC(c2c(F)c(N)cc(C)c2C(F)(F)F)C3)C[C@@H]1CC#N (stereo partly shown) .
Result block: 24.4%

====

- Experimental Details: In vitro stability in liver microsomes, beagle dogs
- Format: in vitro ADME
- Condition Parameters: dog, 0.5 mg/mL
Observable: CLint scaled at 1 μM

Query block: Sample C=C(F)C(=O)N1CCN(c2nc(OC[C@@]34CCCN3C[C@H](F)C4)nc3c2COC(c2c(F)c(N)cc(C)c2C(F)(F)F)C3)C[C@@H]1CC#N (stereo partly shown) — what was its CLint scaled at 1 μM?
Result block: < 13.8 mL/min/kg

Origin of values: patent US12012404B2
